test system: BJeLR; test: Modulatory profiling: Alamar Blue viability, lethal compound cotreated with death modulator (EC50, AUC); assay type: cell-based, human; settings: BJeLR cells; lethal compound cotreated with modulator Lmin/NAD+; modulatory profile value (AUC)
OBSERVED_PROPERTY: AUC, modulator BJ.Lmin/NAD+
Keep the answer to the number alone.

Q) Sample C=CCC1(Cl)C(=O)C(Cl)=C(n2ccnc2)C1(OC)OC (stereo not drawn) — what was its AUC, modulator BJ.Lmin/NAD+?
A) −0.02656

Q) What measured AUC, modulator BJ.Lmin/NAD+ goes with CN(C)CCCOS(=O)(=O)c1ccc(N2CCC(c3ccc(Cl)cc3)=N2)cc1 ?
A) −0.06069

Q) Which AUC, modulator BJ.Lmin/NAD+ value is on record for CC[C@]1(O)C[C@H]2CN(CCc3c([nH]c4ccccc34)[C@@](C(=O)OC)(c3cc4c(cc3OC)N(C=O)[C@H]3[C@@](O)(C(=O)OC)[C@H](OC(C)=O)[C@]5(CC)C=CCN6CC[C@]43[C@@H]65)C2)C1 ?
A) 0.1721

Q) What value of AUC, modulator BJ.Lmin/NAD+ has been recorded for this entry: COc1ccc(C(=O)C(CN2CCCC2)c2ccccc2)cc1 (stereo not drawn)
A) 0.07102

Q) Given CC1(C)CC(=O)C2=C(C1)OC1=C(C(=O)CC(C)(C)C1)C2c1ccc(O)cc1O , state its recorded AUC, modulator BJ.Lmin/NAD+.
A) 0.08736

Q) Can you look up the measured AUC, modulator BJ.Lmin/NAD+ of Cc1cc(C)c2c(=O)n(CC(=O)NCCCN3CCN(c4ccccc4F)CC3)sc2n1 for me?
A) 0.01676
